The values you see were collected from patent US20260008815A1.

Biological target: T1, Recombinant Human FGFR2 alpha (IIIc) Fc Chimera Protein, CF (R&D systems, 712-FR-050) (human, UniProt P21802 22-377)
T1 construct: bought; not shown: Fc part of the chimera
T1 sequence (P21802 22-377, change not shown): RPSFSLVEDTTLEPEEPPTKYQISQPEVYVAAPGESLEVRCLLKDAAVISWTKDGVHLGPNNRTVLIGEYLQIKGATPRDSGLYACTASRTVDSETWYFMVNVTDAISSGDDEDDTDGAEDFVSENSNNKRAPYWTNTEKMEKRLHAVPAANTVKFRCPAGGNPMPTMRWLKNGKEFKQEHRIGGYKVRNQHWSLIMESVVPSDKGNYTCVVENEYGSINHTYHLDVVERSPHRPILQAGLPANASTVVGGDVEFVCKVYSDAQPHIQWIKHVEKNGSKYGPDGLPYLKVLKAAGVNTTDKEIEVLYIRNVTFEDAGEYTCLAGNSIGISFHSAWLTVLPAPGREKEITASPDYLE
Assay: ELISA on plate-bound FGFR2-Fc
Bridge positions count the residues as written; N and C are the ends. Ends that are not written are not given here. COCH2 = acetyl group that carries the bridge
Reported ELISA luminescence signal at 10 nmol/L peptide, relative to SEQ ID NO: 47 (=1) values for a set of binders

Worked examples, 2 binders total:
YCEENLLDPEQYQYFIYFK(COCH2)Y (thioether 2-19 (inferred)) [cyclic peptide SEQ ID NO: 186] :: 0.1 to 0.5 ratio
YCEENYLDPEQYQYFIIFK(COCH2)Y (thioether 2-19 (inferred)) [cyclic peptide SEQ ID NO: 294] :: 0.5 to 0.7 ratio

Turning to the following binder.
## Input Provide only the value of recorded ELISA luminescence signal at 10 nmol/L peptide, relative to SEQ ID NO: 47 (=1) for YCEENYLDPWQYQYFIYFK(COCH2)Y (thioether 2-19 (inferred)) [cyclic peptide SEQ ID NO: 243]
## Output ≥ 0.7 ratio
